Listed here are binders together with their documented Kd.
- TESTED_ON: T1, EsCas13d, nuclease-dead (Eubacterium siraeum, UniProt B0MS50, R295A;H300A;R849A;H854A)
- T1 sequence: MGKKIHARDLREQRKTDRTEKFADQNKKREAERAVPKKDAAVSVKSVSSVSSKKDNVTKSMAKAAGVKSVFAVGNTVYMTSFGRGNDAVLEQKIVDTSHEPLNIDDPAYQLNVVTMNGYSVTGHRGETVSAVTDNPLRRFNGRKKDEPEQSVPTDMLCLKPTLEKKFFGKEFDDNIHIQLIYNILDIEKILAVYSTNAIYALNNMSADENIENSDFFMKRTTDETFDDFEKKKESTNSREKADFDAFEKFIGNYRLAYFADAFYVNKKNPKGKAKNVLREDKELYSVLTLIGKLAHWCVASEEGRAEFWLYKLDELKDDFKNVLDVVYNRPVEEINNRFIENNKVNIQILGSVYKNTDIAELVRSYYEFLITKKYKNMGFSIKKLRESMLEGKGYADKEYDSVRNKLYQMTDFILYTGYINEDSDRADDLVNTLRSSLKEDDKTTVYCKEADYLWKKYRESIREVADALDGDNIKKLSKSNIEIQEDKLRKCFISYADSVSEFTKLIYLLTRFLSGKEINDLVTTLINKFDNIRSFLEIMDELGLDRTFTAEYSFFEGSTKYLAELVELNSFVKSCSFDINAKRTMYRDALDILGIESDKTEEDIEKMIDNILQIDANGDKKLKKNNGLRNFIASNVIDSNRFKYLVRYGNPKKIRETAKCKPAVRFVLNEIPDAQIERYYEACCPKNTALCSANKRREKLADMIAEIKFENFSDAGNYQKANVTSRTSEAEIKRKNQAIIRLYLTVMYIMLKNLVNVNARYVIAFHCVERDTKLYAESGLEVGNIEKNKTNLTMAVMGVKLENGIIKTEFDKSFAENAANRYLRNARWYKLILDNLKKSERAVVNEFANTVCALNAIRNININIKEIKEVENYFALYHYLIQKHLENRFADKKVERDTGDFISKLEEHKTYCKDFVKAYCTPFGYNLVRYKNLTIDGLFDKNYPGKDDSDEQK
- MEASUREMENT_DESCRIPTION: crRNA (strand 1, pre-loaded); Mg2+; 40 mM Tris-HCl pH 7.5, 150 mM NaCl, 6 mM MgCl2, 1 mM DTT, 0.1% Tween-20, 0.2 mg/ml BSA; 25 C; 10 min per concentration, then washed
- PROTOCOL_CONDITIONS: tags: His6-TwinStrep-SUMO cleaved; N-terminal SNAP kept (SNAP-Surface 488); label: 3' end held by stalled T7 RNA polymerase
Answer format: numeric, nM implied, no suffix.

Below, each entry is followed by its recorded Kd result.
BINDER | UNITS_SYMBOL | Kd
target 2 MT 5'PFS GGU 3'PFS UUC (mixed) RNA 1: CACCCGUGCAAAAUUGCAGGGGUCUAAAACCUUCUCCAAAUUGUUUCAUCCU RNA 2: GGGAAUGGAUCCACAUCUACGAAUUCGGUAGGAUGAAACAAUUUGGAGAAGUUCAGAUCGGAAGAGCACACGU | nM | 73
target 2 MT 5'PFS AUA 3'PFS UUA (mixed) RNA 1: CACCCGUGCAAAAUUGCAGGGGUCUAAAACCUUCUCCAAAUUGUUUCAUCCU RNA 2: GGGAAUGGAUCCACAUCUACGAAUUCAUAAGGAUGAAACAAUUUGGAGAAGUUAAGAUCGGAAGAGCACACGU | nM | 10.7

Looking up target 1 insA 3' of 15,insC 3' of 15 (mixed) RNA 1: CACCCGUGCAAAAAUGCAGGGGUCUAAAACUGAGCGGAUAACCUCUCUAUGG RNA 2: GGGAAUGGAUCCACAUCUACGAAUUCGUACCAUAGAGACAGGUUAUCCGCUCACCGAGAUCGGAAGAGCACACGU , I found its Kd recorded as 20.4

Short answer for target 2 MT 5'PFS GCC 3'PFS UUA (mixed) RNA 1: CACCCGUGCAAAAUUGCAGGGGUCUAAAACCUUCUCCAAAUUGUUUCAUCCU RNA 2: GGGAAUGGAUCCACAUCUACGAAUUCGCCAGGAUGAAACAAUUUGGAGAAGUUAAGAUCGGAAGAGCACACGU : Kd was 25
